// data source = paper PMC5540273

System: CDKL5
Conditions: concentration: 1 μM, replicates: in singlicate; n = 1
Parameter Measured: %Inh (%)
Give bare numbers, in %.

INSERT INTO assay_data (compound, recorded_value) VALUES
  ('CC(=O)Nc1nc2cnc(Nc3cc(NC(=O)c4cccc(CCC#N)c4)ccc3C)nc2s1', 4),
  ('Cc1csc(-c2nc(Nc3ccncc3)c3ccccc3n2)n1', 19),
  ('Cl.NC(=O)c1cccc(Nc2nccc(Nc3ccc(Oc4cccc(Cl)c4)c(Cl)c3)n2)c1', 0),
  ('CN(C)CCN(C)C(=O)c1cc(-c2ccncc2)c(-c2ccc(Cl)c(O)c2)o1.Cl.Cl', 2),
  ('COC(=O)c1c(-c2ccccc2)c2cc(OC)ccc2c(=O)n1Cc1ccccc1', 0);

// for each compound below, give its %Inh
1. Cc1cccc(-c2nc(Nc3ccc4[nH]ncc4c3)c3ccccc3n2)n1
2. CCCc1ccc(S(=O)(=O)NC2CCN(c3ccnc(Nc4ccc(F)cc4)n3)C2)cc1 (stereo not drawn)

18
0

// for each compound below, give its %Inh
1. Cn1ccc2ncnc(Oc3ccc(Nc4nc5ccccc5[nH]4)cc3)c21
2. Cc1ccc(C(=O)Nc2ccc(Nc3ccnc4cc(-c5ccccn5)ccc34)cc2O)cc1.Cl
3. Cc1cccc(-c2nc(-c3ccc(S(C)(=O)=O)cc3)sc2-c2ccnc(NCCc3ccccc3)c2)c1

1: 0; 2: 2; 3: 23

// for each compound below, give its %Inh
1. Cc1ccc(NC(=O)Nc2cccc(Cl)c2)cc1-c1ccc(C(=O)Nc2ccncc2)cc1
2. Clc1cc(Cl)cc(Nc2ccnc(Nc3cc(Cl)cc(Cl)c3)n2)c1

0
0

====

System: TRKC
Construct: gene NTRK3
Conditions: concentration: 1 μM, replicates: in singlicate; n = 1
Parameter Measured: %Inh (%)
One number for each entry, in %.

INSERT INTO results (compound_smiles, unit_string, recorded_value) VALUES
  ('Cc1cccc(-c2cc(Nc3ccncc3)c3ccccc3n2)n1', '%', 0),
  ('Fc1cc(Cl)ccc1Nc1ccnc2cc(-c3ccc(CN4CCCCC4)o3)ccc12', '%', 12),
  ('Cl.O=C(Nc1cccc(-c2nn3ncccc3c2-c2ccnc(Nc3cccnc3)n2)c1)c1c(F)cccc1F', '%', 7);

May I ask what %Inh has been recorded for Cc1cc(-c2ccc3c(c2)CC[C@@H](N[C@@H](C)c2ccccc2)C3)cnc1N.Cl ?
8

====

Heads up, these compounds all have pKd values measured for TYK2(JH2domain-pseudokinase).
Numbers only, as −log10 of the molar value.

Use the examples below as a reference point.
INSERT INTO results (compound_smiles, target_entity, parameter_measured, recorded_value) VALUES
  ('COc1ccc2nc(-c3cccc(C)n3)nc(Nc3ccncc3)c2c1', 'TYK2(JH2domain-pseudokinase)', 'pKd', 5.70),
  ('Cc1csc(-c2nc(Nc3ccncc3)c3ccccc3n2)n1', 'TYK2(JH2domain-pseudokinase)', 'pKd', 6.28);

Proceeding to the next compound to report its pKd.
May I ask what pKd has been recorded for Nc1ncnc2[nH]c(-c3ccccc3)nc12 ?
7.02

====

System: AURKB
Conditions: concentration: 1 μM, replicates: in singlicate; n = 1
Parameter Measured: %Inh (%)
Answers are plain numbers, in %.

Use the examples below as a reference point.
INSERT INTO measurements (compound_smiles, target_entity, recorded_value) VALUES
  ('Cc1cccc(-c2nc(Nc3ccc4[nH]ncc4c3)c3ccccc3n2)n1', 'AURKB', 3),
  ('Cl.c1ccc(-c2n[nH]cc2-c2ccnc(-c3ccc(CN4CCOCC4)cc3)c2)nc1', 'AURKB', 6);

// for each compound below, give its %Inh
1. COc1ccccc1CNC(=O)c1cc(C(=O)c2ccccc2C)c[nH]1
2. Cn1ccc2ncnc(Oc3ccc(Nc4nc5ccccc5[nH]4)cc3)c21
3. Cc1ccc(NC(=O)Nc2cccc(Cl)c2)cc1-c1ccc(C(=O)Nc2ccncc2)cc1
4. Nc1nc(-c2nccs2)c(-c2ccnc3ccccc23)s1
5. CC(C)(C)c1ccc(C(=O)Nc2cn3cc(-c4cccnc4)ccc3n2)cc1
6. CC(=O)Nc1nc2cnc(Nc3cc(NC(=O)c4cccc(CCC#N)c4)ccc3C)nc2s1
7. COc1cccc(-c2cc(-c3c[nH]nc3-c3ccccn3)ccn2)c1

1. 22
2. 95.2
3. 14
4. 0
5. 34
6. 18
7. 0

====

Tested on: AXL
Details: concentration: 1 μM, replicates: in singlicate; n = 1
Parameter Measured: %Inh (%)
One number for each entry, in %.

INSERT INTO assay_data (compound, recorded_value) VALUES
  ('Nc1ncnc2[nH]c(-c3ccccc3)nc12', 0),
  ('C[C@@H]1CCCCN1c1cc(-c2ccc3c(N)n[nH]c3c2)nc(N)n1', 0),
  ('CN(C)CCN(C)C(=O)c1cc(-c2ccncc2)c(-c2ccc(Cl)c(O)c2)o1.Cl.Cl', 8),
  ('O=C(Nc1ccc2c(c1)OCO2)NC1CCN(c2ccnc(Nc3ccc(F)cc3)n2)C1 (stereo not drawn)', 5),
  ('Cc1cc(-c2ccc3c(c2)CC[C@@H](N[C@@H](C)c2ccccc2)C3)cnc1N.Cl', 33),
  ('Cn1ccc2ncnc(Oc3ccc(Nc4nc5ccccc5[nH]4)cc3)c21', 0);

// for each compound below, give its %Inh
1. Fc1cccc(COc2nnc(-c3ccc4c(c3)CCO4)o2)c1
2. CS(=O)(=O)c1ccc(-c2nc3n(c2-c2ccncc2)CCC3)cc1

1. 0
2. 0

// for each compound below, give its %Inh
1. CCn1c(-c2cccnc2O)nc2cnccc21
2. Fc1cc(Cl)ccc1Nc1ccnc2cc(-c3ccc(CN4CCCCC4)o3)ccc12
3. O=C(Nc1ccccc1)Nc1cccc(Oc2ccc3nccn3n2)c1
4. Cl.NC(=O)c1cccc(Nc2nccc(Nc3ccc(Oc4cccc(Cl)c4)c(Cl)c3)n2)c1

38
0
7
12

====

Field: %Inh. Provide a value for each of the compounds that follow.
Test system: PRKCE
Details: concentration: 1 μM, replicates: in singlicate; n = 1
Answers are plain numbers, in %.

Use the examples below as a reference point.
INSERT INTO measurements (compound, parameter_measured, recorded_value) VALUES
  ('CCn1c(-c2ccccn2)nc2cnccc21', '%Inh', 10),
  ('Nc1nc(-c2nccs2)c(-c2ccnc3ccccc23)s1', '%Inh', 8),
  ('Cn1ccc2ncnc(Oc3cccc(C(=O)Nc4ccccc4)c3)c21', '%Inh', 0),
  ('Nc1ncnc2[nH]c(-c3ccccc3)nc12', '%Inh', 14),
  ('Cc1cc(-c2ccc3c(c2)CC[C@@H](N[C@@H](C)c2ccccc2)C3)cnc1N.Cl', '%Inh', 0);

// for each compound below, give its %Inh
1. O=C(Nc1n[nH]c2cc(-c3cccc(F)c3F)ccc12)C1CC1
2. COC(=O)c1c(-c2ccccc2)c2cc(OC)ccc2c(=O)n1Cc1ccccc1
3. COc1cc(Nc2nccc(N3CCC(NC(=O)Nc4cc(C)ccc4C)C3)n2)cc(OC)c1OC (centres unmarked)
4. O=C(Nc1ccccc1)Nc1cccc(Oc2ccc3nccn3n2)c1

1. 0
2. 12
3. 0
4. 0

====

Field: %Inh. Provide a value for each of the compounds that follow.
Tested on: BRSK2
Conditions: concentration: 1 μM, replicates: in singlicate; n = 1
Give bare numbers, in %.

Use the examples below as a reference point.
INSERT INTO assay_data (compound, parameter_measured, recorded_value) VALUES
  ('O=S(=O)(c1ccc(-c2ccnc3[nH]ccc23)cc1)N1CCCC1 [GSK846226]', '%Inh', 0),
  ('C[C@@H]1CCCCN1c1cc(-c2ccc3c(N)n[nH]c3c2)nc(N)n1 [GSK2258759]', '%Inh', 0),
  ('O=C(Nc1n[nH]c2nc(-c3nccs3)c(Br)cc12)C1CC1 [SB-742251]', '%Inh', 90);

// for each compound below, give its %Inh
1. Cc1cccc(-c2nc(Nc3ccc4[nH]ncc4c3)c3ccccc3n2)n1 [GW857175]
2. COc1cc2ncn(-c3cc(OCC4CCCO4)c(C(N)=O)s3)c2cc1OC (stereo not drawn) [GSK204607]

0
7

// for each compound below, give its %Inh
1. CN(C)CCN(C)C(=O)c1cc(-c2ccncc2)c(-c2ccc(Cl)c(O)c2)o1.Cl.Cl [SB-710397]
2. Fc1cc(Cl)ccc1Nc1ccnc2cc(I)ccc12 [GW551191]
3. Cc1ccc(C(=O)Nc2ccc(Nc3ccnc4cc(-c5ccccn5)ccc34)cc2O)cc1.Cl [GW440146]
4. COc1ccc(Nc2nccc(-c3cccc(NC(=O)c4cc5cc(F)ccc5[nH]4)c3)n2)cc1 [GSK1229782]

1: 0; 2: 0; 3: 0; 4: 12

====

System: HIPK3
Conditions: concentration: 1 μM, replicates: in singlicate; n = 1
Parameter Measured: %Inh
Please make sure the unit comes right after the number.

Use the examples below as a reference point.
INSERT INTO measurements (compound_smiles, recorded_value) VALUES
  ('Cc1ccc(NC(=O)Nc2cccc(Cl)c2)cc1-c1ccc(C(=O)Nc2ccncc2)cc1', '3%'),
  ('Fc1cc(Cl)ccc1Nc1ccnc2cc(I)ccc12', '0%'),
  ('O=C1NC(=O)C(N2CCc3ccccc32)=C1c1ccccc1Cl', '13%'),
  ('Cc1cccc(-c2nc(Nc3ccncc3)c3ccccc3n2)n1', '0%'),
  ('Fc1cc(Cl)ccc1Nc1ccnc2cc(-c3ccc(CN4CCCCC4)o3)ccc12', '1%');

// for each compound below, give its %Inh
1. Fc1cccc(COc2nnc(-c3ccc4c(c3)CCO4)o2)c1
2. Nc1nc(-c2nccs2)c(-c2ccnc3ccccc23)s1

1: 0%; 2: 21%

// for each compound below, give its %Inh
1. Cc1cccc(-c2nc(Nc3ccc4[nH]ncc4c3)c3ccccc3n2)n1
2. Cc1ccc(-c2cc(-c3c[nH]nc3-c3ccccn3)ccn2)cc1
3. CC(C)(C)c1ccc(C(=O)Nc2cn3cc(-c4cccnc4)ccc3n2)cc1

["35%", "1%", "25%"]
